# assay_target: full-length HAQ STING (Homo sapiens, UniProt Q86WV6, G230A/H232R/R293Q/R71H)
# Construct: AviTag (after GG linker) (C); HRV3C cleavage site (after GS linker) (C); HIS8 (C); made in house; host or cells: Trichoplusia ni (Hi-Five) insect cells infected with baculovirus (virus generated and amplified in Sf21 cells); used as a washed membrane preparation
# Sequence (Q86WV6 with tags, fused parts or gaps R71H/G230A/H232R/R293Q): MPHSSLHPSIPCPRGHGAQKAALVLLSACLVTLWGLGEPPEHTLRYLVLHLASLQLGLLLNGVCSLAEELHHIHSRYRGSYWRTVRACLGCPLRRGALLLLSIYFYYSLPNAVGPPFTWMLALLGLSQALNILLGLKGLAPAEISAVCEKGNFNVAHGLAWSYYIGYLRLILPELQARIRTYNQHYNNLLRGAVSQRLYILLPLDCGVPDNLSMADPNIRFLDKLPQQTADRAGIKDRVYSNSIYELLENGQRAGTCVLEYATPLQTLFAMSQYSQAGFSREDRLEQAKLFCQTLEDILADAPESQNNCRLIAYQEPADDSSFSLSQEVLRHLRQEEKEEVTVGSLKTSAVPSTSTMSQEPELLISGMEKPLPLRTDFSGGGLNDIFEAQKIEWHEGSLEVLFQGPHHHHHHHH
# measurement_description: 3H-cGAMP filtration binding assay (HAQ STING)
# applied_conditions: competition with tritiated cGAMP, HAQ STING membrane
# From the text: The ability of compounds to bind STING is quantified by the ability to compete with tritiated cGAMP ligand for human STING receptor membrane using a radioactive filter-binding assay. […] The ability of compounds to bind STING is quantified by their ability to compete with tritiated cGAMP ligand for human STING receptor membrane using a radioactive filter-binding assay. […]
endpoint_label: EC50 (nM)

{"columns": ["molecule", "EC50 (nM)"],
 "data": [
  ["COc1cc2sc(C(=O)CCC(=O)O)cc2cc1CCCOc1nc2cc(C(=O)CCC(=O)O)sc2cc1OC", 123],
  ["COc1cc2sc(C(=O)C[C@H](C)C(=O)O)cc2c(F)c1OCCCOc1c(OC)cc2sc(C(=O)C[C@H](C)C(=O)O)cc2c1F", 1],
  ["COc1cc2sc(C(=O)C[C@H](C)C(=O)O)cc2cc1OCCCCCCOc1cc2cc(C(=O)C[C@H](C)C(=O)O)sc2cc1OC", 18600],
  ["COc1cc2sc(C(=O)C[C@H](C)C(=O)O)cc2c(F)c1OCCCCCOc1c(OC)cc2sc(C(=O)C[C@H](C)C(=O)O)cc2c1F", 38]
]}

I = COc1cc2sc(C(=O)CCC(=O)O)cc2cc1CCCNc1nc2cc(C(=O)CCC(=O)O)sc2cc1OC
II = COc1cc2sc(C(=O)C[C@H](C)C(=O)O)cc2c(F)c1OCCCOc1cc2sc(C(=O)[C@@H]3CC[C@H]3C(=O)O)cc2c(F)c1OC (single isomer, unassigned) [Example 97]
Enquiry: Among I and II , which shows a numerically higher EC50 result? Mark your answer with the label of the selected entry.
Return: I
(I: 139 nM, II: 20 nM)

====

# assay_target: full-length WT STING (Homo sapiens, UniProt Q86WV6, H232R)
# Construct: AviTag (after gg linker) (C); HRV3C cleavage site (after gs linker) (C); HIS8 (C); made in house; host or cells: Trichoplusia ni (Hi-Five) insect cells infected with baculovirus (virus generated and amplified in Sf21 cells); used as a washed membrane preparation
# Sequence (Q86WV6 with tags, fused parts or gaps H232R): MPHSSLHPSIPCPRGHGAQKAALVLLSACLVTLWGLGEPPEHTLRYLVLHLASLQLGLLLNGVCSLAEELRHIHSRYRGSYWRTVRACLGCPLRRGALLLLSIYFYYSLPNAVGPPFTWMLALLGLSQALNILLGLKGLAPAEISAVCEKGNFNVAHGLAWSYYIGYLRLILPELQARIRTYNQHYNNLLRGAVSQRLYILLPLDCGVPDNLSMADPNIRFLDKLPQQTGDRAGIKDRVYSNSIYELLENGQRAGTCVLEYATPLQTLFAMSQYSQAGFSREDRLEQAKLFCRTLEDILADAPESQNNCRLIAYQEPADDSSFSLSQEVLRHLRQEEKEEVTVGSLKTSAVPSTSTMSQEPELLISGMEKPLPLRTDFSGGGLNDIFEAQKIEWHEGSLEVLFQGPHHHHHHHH
# measurement_description: 3H-cGAMP filtration binding assay (WT STING)
# applied_conditions: competition with tritiated cGAMP, WT STING membrane
endpoint_label: EC50 (nM)

P = COc1cc2sc(C(=O)CCC(=O)O)cc2cc1OCCCOc1cc2sc(C(=O)CCC(=O)O)cc2cc1OC
Q = COc1cc2cc(C(=O)C[C@H](C)C(=O)O)sc2cc1OCCCOc1c(OC)cc2sc(C(=O)[C@@H]3CC[C@H]3C(=O)O)cc2c1F
R = COc1cc2sc(C(=O)CCC(=O)O)nc2cc1OCCc1nc2cc(C(=O)CCC(=O)O)sc2cc1OC
S = COc1cc2sc(C(=O)CCC(=O)O)cc2nc1OCCCc1ccc2sc(C(=O)CCC(=O)O)cc2c1
Enquiry: Sort the 4 compounds by EC50; largest first, smallest last. Write the labels in rank order as requested.
Return: R, Q, S, P
(R: 322 nM, Q: 59 nM, S: 33 nM, P: 19 nM)

P = COc1cc2sc(C(=O)C[C@H](C)C(=O)O)cc2c(F)c1OCCCOc1c(OC)cc2sc(C(=O)C[C@H](C)C(=O)O)cc2c1Br
Q = COc1cc2sc(C(=O)CCC(=O)O)cc2c(F)c1OCCOc1c(OC)cc2sc(C(=O)C[C@H](C)C(=O)O)cc2c1F
Enquiry: Looking only at measured EC50, which entry is lower, P or Q ? Could you answer with the label of the item you picked?
Return: P
(P: 2 nM, Q: 4 nM)
